# test-protocol: NCI Yeast Anticancer Drug Screen. Data for the rad52 strain (AID 147);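 also: 0% = growth of vehicle-treated control cultures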
# experimental-setup: S. cerevisiae rad52 mutant growth inhibition; at 100.0 µM; stronger effect = higher value
This is part of a sample that, as a whole, favours compounds with a hit. Of some 79,000 tested, about 15% had one in any assay. Activity calls are given as the source filed them. Rule as the data show it: active = growth inhibition above about 70%; inactive = the rest.
# growth inhibition listing for each entry below
experimental-endpoint: growth inhibition

compound	reading
O=C1N=C2SC=C(NC(=S)Nc3ccccc3)N2NC12c1ccccc1-c1ccccc12	73% (active)
Cc1cc2cc3cc(C)c(N)cc3nc2cc1N	96% (active)
CC(=O)SC(C[N+](=O)[O-])c1ccccc1 (centres undefined)	99% (active)
O=c1ccc(=O)n(-c2ccccc2)[nH]1	97% (active)
C/C=C/SC(=Nc1ccccc1)Nc1ccccc1	99% (active)
CCCCC(CC)C(=O)[O][Sn]([CH2]CCC)([CH2]CCC)[O]C(=O)C(CC)CCCC (centres undefined)	98% (active)
Cc1ccccc1N=C(NO)c1ccccc1	97% (active)
CCCC/C([O-])=C1/C(=O)N(c2ccccc2)N=C1C.CCCC/C([O-])=C1/C(=O)N(c2ccccc2)N=C1C.[Cu+2]	-2% (inactive)
O=C(NCCCNCCN1C(=O)c2cccc3cc([N+](=O)[O-])cc(c23)C1=O)c1cc(-c2ccccc2)nc2ccccc12	98% (active)
S=C1SCN(C2CCCCC2)CN1C1CCCCC1	55% (inactive)
COC(=O)NC1C(C)OC(OC2C/C=C(/C)C3C=CC4C(OC5CC(OC6CC(O)C(OC7CC(O)C(OC)C(C)O7)C(C)O6)C(O)C(C)O5)C(C)CC(C)C4C3(C)/C(O)=C3\C(=O)OC4(CC(C)C(CO)=CC4/C=C\2C)C3=O)CC1(C)[N+](=O)[O-] (centres undefined)	21% (inactive)
c1ccc2cc(NCNc3ccc4ccccc4c3)ccc2c1	24% (inactive)
O=C1NC(SSC2=NNC3(C(=O)N2)c2ccccc2-c2ccccc23)=NNC12c1ccccc1-c1ccccc12	33% (inactive)
COC(=O)CC1CCc2c(ccc3ccccc23)C1(C)C(=O)OC (centres undefined)	32% (inactive)
CN(C)CCNc1ccc2ncnc3c2c1C(=O)c1ccccc1-3	96% (active)
CCCOC(=O)C(F)C(Br)C(=O)OCCC (centres undefined)	99% (active)
COc1cccc(/C=N/C(/N=C/c2cccc(OC)c2O)c2cccc(OC)c2O)c1O	97% (active)
Oc1ccc(O)c(Cc2ccccc2)c1	99% (active)
Oc1ccc2c(c1)C(O)CCCC2 (centres undefined)	86% (active)
Nc1n[n+]([O-])c2ccc(Cl)cc2[n+]1[O-]	96% (active)
O=C(CC(=O)n1nc(-c2ccccc2)c(N=Nc2ccc(Cl)cc2)c1-c1ccccc1)Nc1cccc(Cl)c1	0% (inactive)
Cc1c(-c2ccccn2)ccc2ccccc12	46% (inactive)
N=C1N=Nc2nc(C3(c4nc5n(c4O)C(=N)N=N5)Cc4ccccc4C3=O)c(O)n21 (centres undefined)	69% (inactive)
CC1=C(C(=O)NCc2ccccc2)C(c2ccccc2)C(C(=O)NCc2ccccc2)=C(C)N1	85% (active)
O=P(NC1CCCCC1)(OCc1ccccc1)OCc1ccccc1	26% (inactive)
CCCCCOC(=S)SC(=O)OCC	94% (active)
C#CCN(Cc1ccc2nc(N)[nH]c(=O)c2c1)c1ccc(C(=O)NC(CCC(=O)O)C(=O)O)cc1 (centres undefined)	88% (active)
CC(C)CCCC(C)C1CCC2C3CCC4=CC(=O)/C(=C\O)CC4(C)C3CCC12C (centres undefined)	25% (inactive)
O=C(NCCCl)Sc1ccc(Cl)cc1	99% (active)
Clc1ccc(NCNC2Nc3ccccc3N2)cc1Cl	98% (active)
CC(C)(C)CC(C)(C)c1cc(O)c(O)c(CN2CCCCC2)c1	32% (inactive)
O=C1C(=O)c2ccccc2C(O)=C1C(C1=C(O)c2ccccc2C(=O)C1=O)c1ccc(Cl)cc1	48% (inactive)
COc1cc2cc3c4cc(OC)c(OC)cc4cc[n+]3c(C)c2cc1OC	-13% (inactive)
O=C(c1ccc([N+](=O)[O-])cc1)C1N=NCC1c1ccccc1 (centres undefined)	45% (inactive)
O=C1C(Br)=C(c2ccccc2)O/C1=C/C(=O)c1ccc(Br)cc1	75% (active)
C/C(=N\Nc1ccc([N+](=O)[O-])cc1[N+](=O)[O-])c1sc(-n2nc(-c3ccccc3)cc2-c2ccccc2)nc1C	26% (inactive)
COc1ccc([N+](=O)[O-])c2c(NCCCN(C)C)c3ccccc3nc12	89% (active)
CN(C)[C@@H]1C(=O)C(C(N)=O)=C(O)[C@@]2(O)C(=O)C3=C(O)c4c(O)cccc4C[C@H]3C[C@@H]12	98% (active)
O=C(CC(C(=O)O)N1CCOCC1)c1ccccc1 (centres undefined)	73% (active)

// provenance: PubChem BioAssay (NCI)
